Consider the following compounds and their measured pIC50 readings.
Molecular target: UniProt P22001
Sequence (P22001 whole entry): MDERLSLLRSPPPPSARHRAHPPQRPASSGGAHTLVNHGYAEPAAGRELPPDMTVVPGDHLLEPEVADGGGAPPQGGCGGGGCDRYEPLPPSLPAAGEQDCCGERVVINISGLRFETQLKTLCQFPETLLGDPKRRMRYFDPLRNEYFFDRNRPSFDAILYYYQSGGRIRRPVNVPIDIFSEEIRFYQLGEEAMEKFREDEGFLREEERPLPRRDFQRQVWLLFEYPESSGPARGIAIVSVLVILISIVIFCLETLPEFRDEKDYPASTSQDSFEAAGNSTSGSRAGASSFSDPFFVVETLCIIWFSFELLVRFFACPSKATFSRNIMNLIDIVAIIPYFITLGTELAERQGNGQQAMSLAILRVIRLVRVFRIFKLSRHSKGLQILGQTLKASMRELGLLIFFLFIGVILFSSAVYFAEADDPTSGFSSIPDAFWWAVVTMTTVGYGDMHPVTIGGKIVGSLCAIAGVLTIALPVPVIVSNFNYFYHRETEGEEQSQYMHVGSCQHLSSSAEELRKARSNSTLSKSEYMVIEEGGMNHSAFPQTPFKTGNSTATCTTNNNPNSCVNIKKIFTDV
Test: Kv1.3 potency evaluation, automated patch clamp electrophysiology (QPatch HT) in CHO-Kv1.3 cells
Conditions: whole-cell QPatch HT, % inhibition of charge, step to +30 mV, four concentrations, N≥3 cells, read-out: hKv1.3 IC50
pIC50: −log10 of the molar value.

# COMPOUND, pIC50
records = [
    ("CC(C)(C)CS(=O)(=O)N(Cc1ccc(Cl)cc1)C12CC(C3=NC(C)(C)[C@H](C(=O)NCCC(F)(F)F)N3)(C1)C2 (mixture of isomers)", 7.08),
    ("CC1(C)N=C(C23CC(N(Cc4ccc(Cl)c(F)c4)S(=O)(=O)c4ccccc4)(C2)C3)N[C@H]1C(=O)NCC(F)(F)C(F)(F)F (mixture of isomers)", 7.12),
    ("CC(F)(F)CCS(=O)(=O)N(Cc1ccc(Cl)c(Cl)c1)C12CC(C3=NC(C)(C)[C@H](C(=O)NC45CC(C4)C5)N3)(C1)C2 (mixture of isomers)", 7.24),
    ("CC1(C)N=C(C23CC(N(Cc4ccc(Cl)cc4)S(=O)(=O)c4ccccc4)(C2)C3)N[C@H]1C(=O)NC1CC(C(F)F)C1 (mixture of isomers) [Example 101]", 7.17),
    ("CC(C)NC(=O)[C@H]1NC(C23CC(N(Cc4ccc(Cl)c(F)c4)S(=O)(=O)c4ccccc4)(C2)C3)=NC1(C)C (mixture of isomers)", 6.63),
    ("CC1(C)N=C(C23CC(N(Cc4ccc(Cl)c(Cl)c4)S(=O)(=O)c4ccccc4)(C2)C3)N[C@H]1C(=O)N1CCC(F)(F)CC1 (mixture of isomers)", 7.21),
    ("CC1(C)N=C(C23CC(N(Cc4ccc(Cl)c(F)c4)S(=O)(=O)c4ccccc4)(C2)C3)N[C@H]1C(=O)NCC(O)C(F)(F)F (mixture of isomers)", 6.68),
    ("CC1(C)N=C(C23CC(N(Cc4ccc(Cl)c(F)c4)S(=O)(=O)c4ccccc4)(C2)C3)N[C@H]1C(=O)N1CCC2(C1)CC(F)(F)C2 (mixture of isomers)", 7.06),
    ("CC1(C)N=C(C23CC(N(Cc4ccc(Cl)cc4)S(=O)(=O)c4ccccc4)(C2)C3)NC1C(=O)NCCC(F)(F)F (stereo not shown)", 7.05),
    ("CC1(C)N=C(C23CC(N(Cc4ccc(Cl)cc4)S(=O)(=O)C4CCOCC4)(C2)C3)N[C@H]1C(=O)NCCC(F)(F)F (mixture of isomers)", 6.28),
    ("C[C@@H]1CC(F)(F)CN1C(=O)[C@@H]1NC(C23CC(N(Cc4ccc(Cl)c(F)c4)S(=O)(=O)c4ccccc4)(C2)C3)=NC1(C)C (mixture of isomers)", 7.40),
    ("CC1(C)N=C(C23CC(N(Cc4ccc(Cl)c(Cl)c4)S(=O)(=O)CCC(F)F)(C2)C3)N[C@H]1C(=O)N1CCC(F)(F)CC1 (mixture of isomers)", 6.92),
    ("CC1(C)N=C(C23CC(N(Cc4ccc(Cl)cc4)S(=O)(=O)c4cccc(C#N)c4)(C2)C3)N[C@H]1C(=O)NCCC(F)(F)F (mixture of isomers)", 7.25),
    ("CN(C)C(=O)[C@H]1CN=C(C23CC(N(Cc4ccc(C(F)(F)F)cc4)S(=O)(=O)c4ccc(F)cc4)(C2)C3)N1", 6.23),
    ("CC1(F)CCN(C(=O)[C@@H]2NC(C34CC(N(Cc5ccc(Cl)c(F)c5)S(=O)(=O)c5ccccc5)(C3)C4)=NC2(C)C)C1 (mixture of isomers)", 7.11),
    ("CC1(C)N=C(C23CC(N(Cc4ccc(Cl)cc4)S(=O)(=O)c4ncc[nH]4)(C2)C3)N[C@H]1C(=O)NCCC(F)(F)F (mixture of isomers)", 5.95),
    ("CN(C)C(=O)[C@@]1(C)CN=C(C23CC(N(Cc4ccc(C(F)(F)F)cc4)S(=O)(=O)c4ccc(F)cc4)(C2)C3)N1 (mixture of isomers)", 6.32),
    ("CCN(CCC(F)(F)F)C(=O)[C@@H]1NC(C23CC(N(Cc4ccc(Cl)c(F)c4)S(=O)(=O)c4ccccc4)(C2)C3)=NC1(C)C (mixture of isomers)", 7.17),
    ("CN(CC1CC(F)(F)C1)C(=O)[C@@H]1NC(C23CC(N(Cc4ccc(Cl)c(F)c4)S(=O)(=O)c4ccccc4)(C2)C3)=NC1(C)C (mixture of isomers)", 7.11),
    ("CC1(C)N=C(C23CC(N(Cc4ccc(Cl)c(F)c4)S(=O)(=O)c4ccccc4)(C2)C3)N[C@H]1C(=O)NCCC(F)F (mixture of isomers)", 7.22),
    ("CC1(C)N=C(C23CC(N(Cc4ccc(Cl)cc4)S(=O)(=O)CCCF)(C2)C3)N[C@H]1C(=O)NCCC(F)(F)F (mixture of isomers)", 7.19),
    ("CN(C(=O)[C@@H]1NC(C23CC(N(Cc4ccc(Cl)c(F)c4)S(=O)(=O)c4ccccc4)(C2)C3)=NC1(C)C)C1CC(C(F)F)C1 (mixture of isomers) [Example 78]", 7.22),
]
